Tested on: HCT-116
Experiment: NCI tumour cell line growth inhibition, 48 h
The source made the active and inactive calls. Rule as the data show it: active = GI50 up to about 1.1 µM and inactive = higher.
Possible outcomes: label 1 for active, label 0 for inactive

compound="C/C(=N\\NC(=N)N)C(CN1CCOCC1)C(c1ccccc1)c1c(O)c2ccccc2oc1=O (centres undefined)" category_label="label 0"
compound=CC(=O)c1cccc(NC(=O)C(=O)c2c(O)oc3ccccc3c2=O)c1 category_label="label 0"
compound=Cn1c(=O)cc(/N=N\c2ccc(Cl)c(Cl)c2)[nH]c1=O category_label="label 0"
compound=CCOC(=O)Nc1cc2c(c(N)n1)N=C(c1ccc3ccccc3c1)CN2 category_label="label 1"
compound=CN(C)c1n2c3cc([N+](=O)[O-])ccc3[n+]3c(N(C)C)n4ccccc4c3c2c2cccc[n+]12.[O-][Cl+3]([O-])([O-])[O-].[O-][Cl+3]([O-])([O-])[O-] category_label="label 0"
compound=O=C1NC(Nc2ccccc2)=NC(C(F)(F)F)(C(F)(F)F)N1 category_label="label 0"
compound=CC1(C)N=C(N)N=C(N)N1c1cccc(Cl)c1 category_label="label 1"
compound="O=C(O)CNC(=O)C(CSC(=O)OCC1c2ccccc2-c2ccccc21)NC(=O)CCC(NC(=O)OCC1c2ccccc2-c2ccccc21)C(=O)O (centres undefined)" category_label="label 0"
compound="COc1cc(C[S+]([O-])c2ccc(O)cc2)cc(OC)c1OC (centres undefined)" category_label="label 0"
